Tested on: Pseudomonas aeruginosa
test: Antimicrobial activity against Pseudomonas aeruginosa clinical isolates by standard broth microdilution method
Format: functional
property: MIC90

INSERT INTO measurements (compound, experimental_value) VALUES
  ('C[C@@H](O)[C@H]1C(=O)N2C(C(=O)O)=C(S[C@@H]3CN[C@H](C(=O)N(C)C)C3)[C@H](C)[C@H]12 [MEROPENEM]', '> 8 µg/mL'),
  ('CC(C)(O/N=C(\C(=O)N[C@H]1CN2CC(C(=O)NCCN3C(=O)c4cc(O)c(O)cc4C3=O)=C(C(=O)O)N2C1=O)c1csc(N)n1)C(=O)O', '8 µg/mL'),
  ('CC(C)(O/N=C(\C(=O)N[C@@H]1C(=O)N2C(C(=O)[O-])=C(C[n+]3ccccc3)CS[C@H]12)c1csc(N)n1)C(=O)O [CEFTAZIDIME]', '> 16 µg/mL');

Next item in the queue.
Request: Query MIC90 on Pseudomonas aeruginosa for NC(=O)[C@@H]1CC[C@@H]2CN1C(=O)N2OS(=O)(=O)O [AVIBACTAM]
Result: > 32 µg/mL
